Where do the numbers come from? From the supplement of paper PMC10883282.

Test system: SW684
Experiment: relative viability vs DMSO control (72 h) (fraction); higher = more viable cells
Settings: 3.333 µM
Documented relative viability across a set of compounds
property_label: relative viability

* CCCCCCCCCCCCCCCCCCOP(=O)([O-])OC1CC[N+](C)(C)CC1 | 1.16
* Cc1ccc(NC(=O)c2ccc(CN3CCN(C)CC3)cc2)cc1Nc1nccc(-c2cccnc2)n1 | 0.973
* CO[C@H]1C[C@@H]2CC[C@@H](C)[C@@](O)(O2)C(=O)C(=O)N2CCCC[C@H]2C(=O)O[C@H]([C@H](C)C[C@@H]2CC[C@@H](O)[C@H](OC)C2)CC(=O)[C@H](C)/C=C(\C)[C@@H](O)[C@@H](OC)C(=O)[C@H](C)C[C@H](C)/C=C/C=C/C=C/1C | 0.752
* CNC(=O)c1cc(Oc2ccc(NC(=O)Nc3ccc(Cl)c(C(F)(F)F)c3)cc2)ccn1 | 0.938
* CO[C@@H]1[C@H](N(C)C(=O)c2ccccc2)C[C@H]2O[C@]1(C)n1c3ccccc3c3c4c(c5c6ccccc6n2c5c31)C(=O)NC4 | 0.406
* FC(F)(F)c1ccc(CNc2ccc(Cc3c[nH]c4ncc(Cl)cc34)cn2)cn1 | 1.14
